# System: Fibroblast
# measurement_notes: Multiplex assay against human fibroblast
# Assay type: toxicity, cell-based
# details: 24 h, 10 µM, compound concentration 10 uM, replicate 1
measure: Population Mitochondria Different-Phenotype (%)

molecule | value_reported
CC(C)(C)c1ccc(CSc2cnn(C(C)(C)C)c(=O)c2Cl)cc1 | 7%
Cn1cc(C(=O)OCC2CCN(CCNS(C)(=O)=O)CC2)c2ccccc21 | 3%
O=C(NCCNCC(O)COc1ccc(O)cc1)N1CCOCC1.O=C(NCCNCC(O)COc1ccc(O)cc1)N1CCOCC1.O=C(O)/C=C/C(=O)O (centres undefined) [XAMOTEROL FUMARATE] | 0%
CC(C)C[C@H](CO)Nc1nc(S[C@@H](C)c2ccccc2)nc2nc(N)sc12 | 15%
